Data origin, for the record: patent US7112607B2

Target: human recombinant A1 adenosine receptors (Homo sapiens, UniProt P30542)
Construct: expressed in transfected cells; host or cells: Chinese hamster ovary (CHO) cells, CHO:huA1, G-418 selected
Sequence (P30542 1-326): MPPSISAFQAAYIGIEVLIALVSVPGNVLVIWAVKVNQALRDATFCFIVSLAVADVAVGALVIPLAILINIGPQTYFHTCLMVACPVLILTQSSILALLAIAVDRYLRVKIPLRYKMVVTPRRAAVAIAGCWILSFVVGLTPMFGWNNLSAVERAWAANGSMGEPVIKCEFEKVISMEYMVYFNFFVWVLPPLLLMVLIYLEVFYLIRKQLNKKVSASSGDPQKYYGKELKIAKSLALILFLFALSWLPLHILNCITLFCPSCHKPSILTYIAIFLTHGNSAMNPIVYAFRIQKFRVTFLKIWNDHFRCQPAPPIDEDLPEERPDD
Assay: Allosteric enhancement: reduction of cAMP content of CHO:huA1 cells (radioimmunoassay)
Format: cell-based
Details: 0.1 h, 1 μM test compound, forskolin 1 μM, rolipram 20 μM, CPA 0.01 nM, adenosine deaminase, 6 min at 36° C., read-out: Change in cAMP Content from Control (mean + SEM)
Recorded measurements of inhibition at 1 µM, one per entry
Measured endpoint: inhibition at 1 µM (%)

• Nc1sc2c(c1C(=O)c1ccc(Br)c3ccccc13)CCCC2 [Example 29] = 29
• Nc1sc2c(c1C(=O)c1ccccn1)CCCC2 [Example 19] = 11
• Nc1sc2c(c1C(=O)c1cccc3ccccc13)CCN(Cc1ccccc1)C2 [Example 9] = 25

* * *

Recorded measurements of Change in cAMP Content from Control (mean + SEM), one per entry
Target: human recombinant A1 adenosine receptors (Homo sapiens, UniProt P30542)
Construct: expressed in transfected cells; host or cells: Chinese hamster ovary (CHO) cells, CHO:huA1, G-418 selected
Sequence (P30542 1-326): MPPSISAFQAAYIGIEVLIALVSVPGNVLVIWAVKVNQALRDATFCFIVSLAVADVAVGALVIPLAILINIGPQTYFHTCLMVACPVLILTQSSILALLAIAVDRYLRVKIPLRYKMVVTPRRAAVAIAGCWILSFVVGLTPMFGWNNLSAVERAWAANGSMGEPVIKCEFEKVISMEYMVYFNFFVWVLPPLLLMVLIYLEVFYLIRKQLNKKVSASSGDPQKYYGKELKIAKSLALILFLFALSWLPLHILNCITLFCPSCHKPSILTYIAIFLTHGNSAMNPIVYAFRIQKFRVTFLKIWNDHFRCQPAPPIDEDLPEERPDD
Assay: Allosteric enhancement: reduction of cAMP content of CHO:huA1 cells (radioimmunoassay)
Type: cell-based
Settings: 0.1 μM test compound, forskolin 1 μM, rolipram 20 μM, CPA 0.01 nM, adenosine deaminase, 6 min at 36° C.
Measured endpoint: Change in cAMP Content from Control (mean + SEM) (%)

* Nc1sc2c(c1C(=O)c1ccc(Cl)c3ccccc13)CCC2 | −15
* Cc1sc(N)c(C(=O)c2cccc(C(F)(F)F)c2)c1C [PD 81,723, reference compound] | −7
* COc1ccc(C(=O)c2c(N)sc3c2CCCC3)c2ccccc12 | −5
* COc1ccc(C(=O)c2c(N)sc3c2CCC3)c2ccccc12 | −3

* * *

biological target: human recombinant A1 adenosine receptors (Homo sapiens, UniProt P30542); construct: expressed in transfected cells; host or cells: Chinese hamster ovary (CHO) cells, CHO:huA1, G-418 selected; assay: Allosteric enhancement: reduction of cAMP content of CHO:huA1 cells (radioimmunoassay); format: cell-based; settings: 0.1 h, 0.01 μM test compound, forskolin 1 μM, rolipram 20 μM, CPA 0.01 nM, adenosine deaminase, 6 min at 36° C., read-out: Change in cAMP Content from Control (mean + SEM)
Measured endpoint: inhibition at 0.01 µM (%)

* Nc1sc2c(c1C(=O)c1ccc(Cl)cc1)CCS2 | 1
* Nc1sc2c(c1C(=O)c1ccc(Br)c3ccccc13)CCCC2 | 6
* Cc1sc(N)c(C(=O)c2ccc3ccccc3c2)c1C | 1
* Nc1sc2c(c1C(=O)c1ccc(I)c3ccccc13)CCCC2 | 3
* Nc1sc2c(c1C(=O)c1cccc3ccccc13)CCN(Cc1ccccc1)C2 | 21
* CC(=O)Nc1sc2c(c1C(=O)c1ccco1)CCCC2 | 8
* Nc1sc2c(c1C(=O)c1ccccn1)CCN(Cc1ccccc1)C2 | -2
* Nc1sc2c(c1C(=O)c1cccc3ccccc13)CCC2 | 0.6
* Nc1sc2c(c1C(=O)c1ccc3ccccc3c1)CCC2 | 19
* Nc1sc2c(c1C(=O)c1cccc3ccccc13)CCCC2 | 11
* Cc1sc(N)c(C(=O)c2ccco2)c1C | 4
* Nc1sc2c(c1C(=O)c1cc3ccccc3o1)CCCC2 | 13
* Nc1sc2c(c1C(=O)c1ccco1)CCC2 | -3
* Cc1sc(N)c(C(=O)c2cccc3ccccc23)c1C | 0.6
* Nc1sc2c(c1C(=O)c1ccccc1)CCSC2 | -9
* Cc1sc(N)c(C(=O)c2cc3ccccc3o2)c1C | -6
* Nc1sc2c(c1C(=O)c1ccc3ccccc3c1)CCCC2 | 13
* Cc1sc(N)c(C(=O)c2ccccn2)c1C | -0.7

* * *

Target: human recombinant A1 adenosine receptors (Homo sapiens)
Construct: expressed in transfected cells; host or cells: Chinese hamster ovary (CHO) cells, CHO:huA1, G-418 selected
Test: Allosteric enhancement: reduction of cAMP content of CHO:huA1 cells (radioimmunoassay)
Assay type: cell-based
Settings: 0.1 h, 1 μM test compound, forskolin 1 μM, rolipram 20 μM, CPA 0.01 nM, adenosine deaminase, 6 min at 36° C., read-out: Change in cAMP Content from Control (mean + SEM)
Description: Chinese hamster ovary cells expressing human recombinant A1 adenosine receptors (CHO:huA1 cells) at a density of approximately 8000 fmol/mg protein were prepared as previously described (Kollias-Baker et al., (1997), J. Pharmacol. Exp. Ther. 281: 761–768) and aliquots of the cells at low passage numbers were frozen and stored in liquid nitrogen. […]
Recorded measurements of inhibition at 1 µM, one per entry
Measured endpoint: inhibition at 1 µM (%)

* Cc1sc(N)c(C(=O)c2ccco2)c1C [Example 13] | 7
* Nc1sc2c(c1C(=O)c1ccc3ccccc3c1)CCN(Cc1ccccc1)C2 [Example 32] | 18
* Cc1sc(N)c(C(=O)c2cc3ccccc3o2)c1C [Example 18] | -16
* Nc1sc2c(c1C(=O)c1ccc3ccccc3c1)CCCC2 [Example 30] | 28
